The values you see were collected from ChEMBL document CHEMBL1129941.

Provide the reported log10 IC50 of each item.
Target Under Test: Glutamate receptor ionotropic, AMPA (Rattus norvegicus, UniProt P19490+P19491+P19492+P19493)
Use the decimal logarithm of IC50 (nM).

NC(Cc1snc(O)c1Br)C(=O)O (stereo not given)	4.23
CC(C)(C)c1snc(O)c1CC(N)C(=O)O (stereo not given)	2.80
NC(Cc1cc(O)no1)C(=O)O (stereo not given)	3.18
Cc1snc(O)c1CC(N)C(=O)O (stereo not given)	3.26

# evaluate next
Field request: log10 IC50 | item: NC(Cc1cc(O)ns1)C(=O)O (stereo not given)
3.76
